system: HepG2; test: Antiproliferative activity against human HepG2 cells assessed as inhibition of cell growth incubated for 48 hrs by MTT assay; format: functional, cell-based; settings: HepG2, 48 h
pIC50: −log10 of the molar value.
Think of 5 as a floor: if pIC50 stands on it or above, it is fulfilled; beneath it, not fulfilled.

# input API: above_or_equal(metric=pIC50, cutoff=5) for item CCc1ccc(/C=C/C(=O)c2nccc3c2[nH]c2ccccc23)cc1
# output not fulfilled

# input API: above_or_equal(metric=pIC50, cutoff=5) for item COc1ccc2[nH]c3c(C(=O)/C=C/c4cccc(I)c4)nccc3c2c1
# output not fulfilled

# input API: above_or_equal(metric=pIC50, cutoff=5) for item COc1ccc2[nH]c3c(C(=O)/C=C/c4cccc(Br)c4)nccc3c2c1
# output not fulfilled

***
# input API: above_or_equal(metric=pIC50, cutoff=5) for item COc1ccc2[nH]c3c(C(=O)/C=C/c4ccc(OC)c(OC)c4OC)nccc3c2c1
# output not fulfilled

# input API: above_or_equal(metric=pIC50, cutoff=5) for item COc1ccc2[nH]c3c(C(=O)/C=C/c4cc(Cl)ccc4Cl)nccc3c2c1
# output not fulfilled

---

tested on: HepG2; test: Antiproliferative activity against human HepG2 cells assessed as inhibition of cell growth incubated for 48 hrs by MTT assay; type: functional, cell-based; settings: HepG2, 48 h
Categorize each record by its IC50 using range 1: < 3 µM; range 2: ≥ 3 µM and < 10 µM; range 3: ≥ 10 µM

# input Kindly identify the class of COc1cc(/C=C/C(=O)c2nccc3c2[nH]c2ccccc23)ccc1F .
# output range 2

# input Kindly identify the class of O=C(/C=C/c1ccccc1Cl)c1nccc2c1[nH]c1ccccc12 .
# output range 1

# input Kindly identify the class of O=C(/C=C/c1ccc2c(c1)OCCO2)c1nccc2c1[nH]c1ccccc12 .
# output range 3

# input Kindly identify the class of O=C(/C=C/c1cc(F)c(F)c(F)c1)c1nccc2c1[nH]c1ccccc12 .
# output range 1

Please turn your attention to the following entry.
# input Kindly identify the class of COc1ccc2[nH]c3c(C(=O)/C=C/c4c(OC)cccc4OC)nccc3c2c1 .
# output range 2

---

assay: Cytotoxicity against human L02 cells assessed as inhibition of cell growth incubated for 48 hrs by MTT assay; format: toxicity, cell-based
property-label: IC50 at 48 h

Answered cases to consult:
# input So what does the record say about IC50 at 48 h for COc1ccc2[nH]c3c(C(=O)/C=C/c4cccc(Br)c4)nccc3c2c1 ?
# output > 20 µM

# input So what does the record say about IC50 at 48 h for COc1ccc2[nH]c3c(C(=O)/C=C/c4ccc(F)c(OC)c4)nccc3c2c1 ?
# output > 20 µM

# input So what does the record say about IC50 at 48 h for COc1cc(Br)c(/C=C/C(=O)c2nccc3c2[nH]c2ccccc23)cc1OC ?
# output > 20 µM

# input So what does the record say about IC50 at 48 h for O=C(/C=C/c1ccc(Br)cc1)c1nccc2c1[nH]c1ccccc12 ?
# output > 20 µM

***
# input So what does the record say about IC50 at 48 h for O=C(/C=C/c1cccc(Br)c1)c1nccc2c1[nH]c1ccccc12 ?
# output 14.3 µM

# input So what does the record say about IC50 at 48 h for O=C(/C=C/c1cccc(I)c1)c1nccc2c1[nH]c1ccccc12 ?
# output > 20 µM

# input So what does the record say about IC50 at 48 h for COc1ccc2[nH]c3c(C(=O)/C=C/c4cc(Cl)ccc4Cl)nccc3c2c1 ?
# output > 20 µM

# input So what does the record say about IC50 at 48 h for COc1ccc2[nH]c3c(C(=O)/C=C/c4ccc(Br)cc4)nccc3c2c1 ?
# output > 20 µM

# input So what does the record say about IC50 at 48 h for COc1cccc(OC)c1/C=C/C(=O)c1nccc2c1[nH]c1ccccc12 ?
# output > 20 µM

---

tested on: HepG2; experiment: Antiproliferative activity against human HepG2 cells assessed as inhibition of cell growth incubated for 48 hrs by MTT assay; type: functional, cell-based; settings: HepG2, 48 h
property-label: pIC50
pIC50 here: minus log base 10 of the concentration, concentration in moles per litre.

# input So what does the record say about pIC50 for CC[C@@]1(O)C(=O)OCc2c1cc1n(c2=O)Cc2cc3ccccc3nc2-1 ?
# output 5.74

# input So what does the record say about pIC50 for O=C(/C=C/c1cccc(Br)c1)c1nccc2c1[nH]c1ccccc12 ?
# output 5.23

# input So what does the record say about pIC50 for COc1ccc(/C=C/C(=O)c2nccc3c2[nH]c2ccccc23)c(OC)c1OC ?
# output 4.94

# input So what does the record say about pIC50 for COc1ccc2[nH]c3c(C(=O)/C=C/c4ccc(Cl)c([N+](=O)[O-])c4)nccc3c2c1 ?
# output 5.11

# input So what does the record say about pIC50 for COc1ccc2[nH]c3c(C(=O)/C=C/c4cc(F)c(F)c(F)c4)nccc3c2c1 ?
# output 4.80

# input So what does the record say about pIC50 for COc1ccc2[nH]c3c(C(=O)/C=C/c4ccc(Cl)c(C)c4)nccc3c2c1 ?
# output 5.56

***
# input So what does the record say about pIC50 for COc1cc(Br)c(/C=C/C(=O)c2nccc3c2[nH]c2ccccc23)cc1OC ?
# output 5.02

# input So what does the record say about pIC50 for COc1ccc2[nH]c3c(C(=O)/C=C/C=C/c4ccccc4)nccc3c2c1 ?
# output 4.72

# input So what does the record say about pIC50 for COc1ccc2[nH]c3c(C(=O)/C=C/c4ccc5c(c4)OCCO5)nccc3c2c1 ?
# output 4.81

# input So what does the record say about pIC50 for O=C(/C=C/c1cc(Cl)ccc1Cl)c1nccc2c1[nH]c1ccccc12 ?
# output 5.47

---

test system: HepG2; experiment: Antiproliferative activity against human HepG2 cells assessed as inhibition of cell growth incubated for 48 hrs by MTT assay; type: functional, cell-based; conditions: HepG2, 48 h
property-label: pIC50
pIC50 here: minus log base 10 of the concentration, concentration in moles per litre.

Answered cases to consult:
# input So what does the record say about pIC50 for COc1ccc2c(c1)[nH]c1c(C)nccc12 [HARMINE] ?
# output 4.72

# input So what does the record say about pIC50 for COc1ccc2[nH]c3c(C(=O)/C=C/c4ccc(F)c(OC)c4)nccc3c2c1 ?
# output 5.20

# input So what does the record say about pIC50 for COc1ccc2[nH]c3c(C(=O)/C=C/c4ccc(Br)cc4)nccc3c2c1 ?
# output 4.80

Consider the additional compound presented here.
# input So what does the record say about pIC50 for O=C(/C=C/c1ccc(Cl)c([N+](=O)[O-])c1)c1nccc2c1[nH]c1ccccc12 ?
# output 5.79

---

IC50 at 48 h overview
test: Cytotoxicity against human L02 cells assessed as inhibition of cell growth incubated for 48 hrs by MTT assay; type: toxicity, cell-based

Answered cases to consult:
# input So what does the record say about IC50 at 48 h for O=C(/C=C/c1ccc(Cl)c([N+](=O)[O-])c1)c1nccc2c1[nH]c1ccccc12 ?
# output 9.61 µM

# input So what does the record say about IC50 at 48 h for COc1ccc2[nH]c3c(C(=O)/C=C/c4cccc(I)c4)nccc3c2c1 ?
# output > 20 µM

# input So what does the record say about IC50 at 48 h for COc1ccc(/C=C/C(=O)c2nccc3c2[nH]c2ccccc23)cc1 ?
# output > 20 µM

# input So what does the record say about IC50 at 48 h for COc1ccc2[nH]c3c(C(=O)/C=C/c4ccc([N+](=O)[O-])cc4)nccc3c2c1 ?
# output > 20 µM

***
# input So what does the record say about IC50 at 48 h for COc1ccc2[nH]c3c(C(=O)/C=C/c4cc(F)c(F)c(F)c4)nccc3c2c1 ?
# output > 20 µM

# input So what does the record say about IC50 at 48 h for COc1ccc2[nH]c3c(C(=O)/C=C/c4cc(OC)c(OC)cc4Br)nccc3c2c1 ?
# output > 20 µM

---

experiment: Cytotoxicity against human L02 cells assessed as inhibition of cell growth incubated for 48 hrs by MTT assay; assay type: toxicity, cell-based
property-label: IC50 at 48 h

# input So what does the record say about IC50 at 48 h for CC[C@@]1(O)C(=O)OCc2c1cc1n(c2=O)Cc2cc3ccccc3nc2-1 [CAMPTOTHECIN] ?
# output 0.59 µM

# input So what does the record say about IC50 at 48 h for COc1ccc2[nH]c3c(C(=O)/C=C/c4ccc(Cl)c([N+](=O)[O-])c4)nccc3c2c1 ?
# output > 20 µM

# input So what does the record say about IC50 at 48 h for COc1cc(/C=C/C(=O)c2nccc3c2[nH]c2ccccc23)ccc1F ?
# output > 20 µM

# input So what does the record say about IC50 at 48 h for COc1ccc2[nH]c3c(C(=O)/C=C/c4ccccc4Cl)nccc3c2c1 ?
# output > 20 µM

***
# input So what does the record say about IC50 at 48 h for COc1ccc2[nH]c3c(C(=O)/C=C/c4ccc5c(c4)OCCO5)nccc3c2c1 ?
# output > 20 µM

# input So what does the record say about IC50 at 48 h for O=C(/C=C/c1cc(F)c(F)c(F)c1)c1nccc2c1[nH]c1ccccc12 ?
# output 17.8 µM

# input So what does the record say about IC50 at 48 h for COc1ccc(/C=C/C(=O)c2nccc3c2[nH]c2ccccc23)c(OC)c1OC ?
# output > 20 µM

# input So what does the record say about IC50 at 48 h for O=C(/C=C/c1ccccc1Cl)c1nccc2c1[nH]c1ccccc12 ?
# output 11.4 µM
